Assay: First-in-human SAD and MAD study, pharmacokinetics
Type: in vivo
Settings: human, plasma, oral, 25 mg, SAD, 25 mg fed standard breakfast, N=6, Mean ± SD
experimentalEndpoint: Cmax (ng/mL)
Answers are plain numbers, in ng/mL.

I would be grateful if you could share the reported Cmax for "Cc1cc(N2CCc3cc(F)ccc3C2)cc(C)c1NC(=O)CC(C)(C)C" .
45.8

###

Assay: TMS crossover study, pharmacokinetic analysis
Assay type: in vivo, human
Conditions: male, human, plasma, oral, 20 mg, Compound A Treatment Period, 2 h, Mean
experimentalEndpoint: concentration at 2 h (ng/mL)
Give bare numbers, in ng/mL.

I would be grateful if you could share the reported concentration at 2 h for Cc1cc(N2CCc3cc(F)ccc3C2)cc(C)c1NC(=O)CC(C)(C)C [Compound A] .
15.9

###

Test: TMS crossover study, pharmacokinetic analysis
Format: in vivo, human
Conditions: male, human, plasma, oral, 20 mg, Period 1 (N=10), 24 h sampling, Mean ± SD
experimentalEndpoint: half-life (h)
Numbers only, in h.

I would be grateful if you could share the reported half-life for "Cc1cc(N2CCc3cc(F)ccc3C2)cc(C)c1NC(=O)CC(C)(C)C" .
11.4

###

Assay: Food effect study, oral capsule, plasma PK in non-human primate
Assay type: in vivo, Cynomolgus monkeys
Conditions: cynomolgus monkey, plasma, po, 3 mg/kg, fasted, 3 mg/kg oral, plasma, 8 h, individual animals; read-out: Concentration
experimentalEndpoint: concentration at 8 h (µg/mL)
One number for each entry, in µg/mL.

I would be grateful if you could share the reported concentration at 8 h for Cc1cc(N2CCc3cc(F)ccc3C2)cc(C)c1NC(=O)CC(C)(C)C [Compound A] .
0.0384

###

Test: Food effect study, oral capsule, plasma PK in non-human primate
Assay type: in vivo, Cynomolgus monkeys
Conditions: cynomolgus monkey, plasma, oral, 3 mg/kg, fed, 3 mg/kg capsule, plasma, 8 h, individual animals; read-out: Concentration
Method: The following study was conducted to determine the effect of food when Compound A is orally administered to a non-human primate. Three (n=3) Cynomolgus monkeys of Vietnamese origin were used in this study. At the time of initial dose administration, the monkeys weighed 4.7 to 5.1 kg and were about 4.5 years of age. A certified primate diet (Teklad® Certified Diet 2050C) was fed during the study. For Group 1, the three monkeys were fasted overnight with food returned 4 hours post-dose. […]
experimentalEndpoint: concentration at 8 h (ng/mL)
Numbers only, in ng/mL.

I would be grateful if you could share the reported concentration at 8 h for "Cc1cc(N2CCc3cc(F)ccc3C2)cc(C)c1NC(=O)CC(C)(C)C" .
50.4

###

Assay: First-in-human SAD and MAD study, pharmacokinetics
Type: in vivo
Details: human, plasma, oral, 5 mg, SAD, 5 mg fasted, N=3, Mean ± SD; read-out: AUC0-24
experimentalEndpoint: AUC(0-t)
Kindly format the answer as number then unit.

I would be grateful if you could share the reported AUC(0-t) for "Cc1cc(N2CCc3cc(F)ccc3C2)cc(C)c1NC(=O)CC(C)(C)C" .
74.6 ng·h/mL

###

Assay: TMS crossover study, pharmacokinetic analysis
Type: in vivo, human
Conditions: male, human, plasma, oral, 20 mg, Period 2 (N=10), Range
experimentalEndpoint: Tmax

I would be grateful if you could share the reported Tmax for "Cc1cc(N2CCc3cc(F)ccc3C2)cc(C)c1NC(=O)CC(C)(C)C" .
1.92 to 8.15 h

###

Experiment: First-in-human SAD and MAD study, pharmacokinetics
Format: in vivo
Conditions: human, plasma, oral, 25 mg, MAD, 25 mg QD Fed, Day 1, N=6, mean; read-out: AUC0-24
experimentalEndpoint: AUC(0-t) (ng·h/mL)
Give bare numbers, in ng·h/mL.

I would be grateful if you could share the reported AUC(0-t) for "Cc1cc(N2CCc3cc(F)ccc3C2)cc(C)c1NC(=O)CC(C)(C)C" .
592

###

Assay: Food effect study, oral capsule, plasma PK in non-human primate
Format: in vivo, Cynomolgus monkeys
Conditions: cynomolgus monkey, plasma, oral, 3 mg/kg, Group 2 (fed), 3 mg/kg, 4 h, N=3; read-out: Mean plasma concentration
experimentalEndpoint: concentration at 4 h (ng/mL)
Give bare numbers, in ng/mL.

I would be grateful if you could share the reported concentration at 4 h for "Cc1cc(N2CCc3cc(F)ccc3C2)cc(C)c1NC(=O)CC(C)(C)C" .
44.3

###

Experiment: TMS crossover study, pharmacokinetic analysis
Type: in vivo, human
Conditions: male, human, plasma, oral, 20 mg, Period 1 (N=10), Range; read-out: Cmax
experimentalEndpoint: Cmax

I would be grateful if you could share the reported Cmax for Cc1cc(N2CCc3cc(F)ccc3C2)cc(C)c1NC(=O)CC(C)(C)C [Compound A] .
29.9 to 77.1 ng/mL
